Catalogue of RAM network inhibition readings, one per entry.
- method description: RAM signaling pathway blockade in yeast – S. cerevisiae, Pdr1DBD-CYC8 efflux-inhibited sensitized strain, primary screen (AID 1298);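 further: 0% = DMSO untreated cells without growth and 100% = 10 µM 1-NA-PP1 full growth; higher means more yeast growth rescued from 5-FOA killing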
- test settings: S. cerevisiae cbk1-as DSE1-URA3 strain, 5-FOA growth OD615, 2 d; at 50 µM; hits give high values
experimental endpoint: RAM network inhibition (%)

N#Cc1c(NC(=O)c2cc(C3CC3)on2)sc2c1CCC2 : -1.72
CNC(=O)c1c(N)sc2c1CCCCC2 : 4.13
Cc1cccn2cc(-c3ccc(F)cc3)nc12 : -1.54
COc1ccc(Cl)cc1NC(=O)C1CCCO1 (centres undefined) : 2.75
CC(=O)N1CCc2c(sc(NC(=O)c3ccc4c(c3)OCCO4)c2C#N)C1 : 4.02
Cc1sc(NC(=O)c2cccs2)c(C(N)=O)c1C : -1.19
CC(=O)COC(=O)c1cccc(N2C(=O)C3C4C=CC(C4)C3C2=O)c1 (centres undefined) : 0.67
Cc1occc1C(=O)Nc1nnc(-c2ccncc2)s1 : -1.3
COc1cccc(C2NC(=O)NC(C)=C2C(=O)OCCSC)c1OC (centres undefined) : 2.02
Cc1cc(C(=O)N2CCN(S(C)(=O)=O)CC2)cs1 : -0.04
Cc1ccc(O)c(C(=O)c2cnn(C(=O)Cc3csc(C)n3)c2)c1 : -1.67
Cc1[nH]c2ccccc2c1Cc1nnc(SCC(N)=O)o1 : 1.36
O=C(CCCCn1c(=O)[nH]c2ccccc2c1=O)N1CCN(c2ncccn2)CC1 : 0.58
CN(C)S(=O)(=O)c1ccc(NC(=O)C2COc3ccccc3O2)cc1 (centres undefined) : 2.63
CCOC(=O)c1ccc(NC(=O)C2CCCN(S(=O)(=O)c3cnc[nH]3)C2)cc1 (centres undefined) : 2.17
CCOC(=O)N1CCN(C(=O)c2ccccc2Oc2ccccc2)CC1 : 0.52
O=C(Nc1ccc(N2CCCC2)c(Cl)c1)c1ccco1 : 0.62
CC(NS(=O)(=O)c1ccc(Br)cc1)C(c1cccs1)N1CCN(C)CC1 (centres undefined) : 0.88
COCC(=O)NCCc1nc2ccccc2[nH]1 : 0.89
Cn1c(C(=O)NCCCN2CCCC2=O)cc2c(=O)n(C)c3ccccc3c21 : 0.06
CCOc1ccc(C2CC(c3ccc(F)cc3)n3ncnc3N2)cc1 (centres undefined) : -0.36
C=CCOC(=O)C1=C(C)N=C2SCCC(=O)N2C1c1ccc(OC(=O)c2ccco2)cc1 (centres undefined) : 5.69
COc1ccc(N(CC(=O)Nc2ccc3c(c2)OCO3)S(C)(=O)=O)c(OC)c1 : 4.05
O=C(NCc1ccco1)c1nnc(Cc2ccc(F)cc2)o1 : 4.79
